# TEST SYSTEM: HIV-1 Env of isolate MGRM-F1-017 (subtype F) (HIV-1)
# PROTOCOL TEXT: cell-based or functional assay
PROPERTY LABEL: IC50 (neutralization) (µg/mL)
Could you give me the number in µg/mL? Just the number is fine.

Request the reported IC50 (neutralization) associated with PGT-135 (antibody, V domains shown) VH: QLQMQESGPGLVKPSETLSLSCTVSGDSIRGGEWGDKDYHWGWVRHSAGKGLEWIGSIHWRGTTHYKESLRRRVSMSIDTSRNWFSLRLASVTAADTAVYFCARHRHHDVFMLVPIAGWFDVWGPGVQVTVSS VL: EIVMTQSPDTLSVSPGETVTLSCRASQNINKNLAWYQYKPGQSPRLVIFETYSKIAAFPARFVASGSGTEFTLTINNMQSEDVAVYYCQQYEEWPRTFGQGTKVDIK
7.79
